Tested on: TZM-bl cells
experimental-protocol: MTT cell proliferation
cond: MTT cell proliferation assay

[
  {
    "substance": "Ac-CSSHFPWSQVQFWK-NH2 [16-7]",
    "cellular cytotoxicity (in words)": "cytotoxic"
  },
  {
    "substance": "Ac-SSHFPVSQYQFWK-NH2 [12-3]",
    "cellular cytotoxicity (in words)": "cytotoxic"
  },
  {
    "substance": "Ac-CSSHFPFSQFQFWK-NH2 [16-5]",
    "cellular cytotoxicity (in words)": "cytotoxic"
  },
  {
    "substance": "Ac-CSSHFPFSQVQFWK-NH2 [16-6]",
    "cellular cytotoxicity (in words)": "cytotoxic"
  },
  {
    "substance": "Ac-CSSHFPYSQFQFWK-NH2 [16-4]",
    "cellular cytotoxicity (in words)": "cytotoxic"
  }
]

----------
The reader will find reported TI (toxicity index; ratio of cytotoxicity to neutralization IC50 values) values listed item by item below.
Tested on: TZM-bl cells
experimental-protocol: MTT cell proliferation
cond: MTT assay
measure: TI (toxicity index; ratio of cytotoxicity to neutralization IC50 values)

[
  {
    "substance": "Ac-CSSYFPFSQYQWWK-NH2 [20-2]",
    "meas-value": ">250 µM"
  },
  {
    "substance": "Ac-SSHFPYSQYQFWK-NH2 [12-1]",
    "meas-value": ">500 to 1000 µM"
  },
  {
    "substance": "Ac-CSSHFPFSQFQFWK-NH2 [16-5]",
    "meas-value": ">50 µM"
  },
  {
    "substance": "Ac-CSSYFPFSQYQFWK-NH2 [18-2]",
    "meas-value": ">63 to 125 µM"
  },
  {
    "substance": "Ac-CSSHFPFSQYQFWK-NH2 [16-2]",
    "meas-value": ">63 to 250 µM"
  },
  {
    "substance": "Ac-CSSYFPWSQYQWWK-NH2 [30-2]",
    "meas-value": ">500 µM"
  },
  {
    "substance": "Ac-YSSYFPFSQYQWWK-NH2 [40-2]",
    "meas-value": ">250 µM"
  },
  {
    "substance": "Ac-SSHFPVSQYQFWK-NH2 [12-3]",
    "meas-value": ">5 µM"
  },
  {
    "substance": "Ac-SSHFPWSQYQFWK-NH2 [12-4]",
    "meas-value": ">500 µM"
  },
  {
    "substance": "Ac-SSHFPFSQRQFWK-NH2 [14-1]",
    "meas-value": ">500 to 1000 µM"
  },
  {
    "substance": "Ac-CSSHFPYSQFQFWK-NH2 [16-4]",
    "meas-value": ">100 µM"
  },
  {
    "substance": "Ac-SSHFPFSQYQFWK-NH2 [12-2]",
    "meas-value": ">500 µM"
  },
  {
    "substance": "Ac-CSSHFPWSQVQFWK-NH2 [16-7]",
    "meas-value": ">75 µM"
  },
  {
    "substance": "Ac-SSHFPFSQVQFWK-NH2 [14-5]",
    "meas-value": ">500 µM"
  }
]

----------
Tested on: TZM-bl cells
experimental-protocol: MTT cell proliferation
cond: MTT assay
The reader will find reported TI (toxicity index; ratio of cytotoxicity to neutralization IC50 values) values listed item by item below.
measure: TI (toxicity index; ratio of cytotoxicity to neutralization IC50 values)

[
  {
    "substance": "Ac-SSHFPWSQRQFWK-NH2 [14-2]",
    "tested-system": "TZM-bl cells",
    "meas-value": ">500 to 1000 µM"
  },
  {
    "substance": "Ac-SSHFPWSQVQFWK-NH2 [14-6]",
    "tested-system": "TZM-bl cells",
    "meas-value": ">200 µM"
  },
  {
    "substance": "Ac-CSSHFPFSQVQFWK-NH2 [16-6]",
    "tested-system": "TZM-bl cells",
    "meas-value": ">5 µM"
  }
]
